# Measurement Target: human Siglec-7 expressed on human cells (primary monocytes, dendritic cells, macrophages, NK cells, … (human, UniProt Q9Y286 19-467))
# Sequence (Q9Y286 19-467): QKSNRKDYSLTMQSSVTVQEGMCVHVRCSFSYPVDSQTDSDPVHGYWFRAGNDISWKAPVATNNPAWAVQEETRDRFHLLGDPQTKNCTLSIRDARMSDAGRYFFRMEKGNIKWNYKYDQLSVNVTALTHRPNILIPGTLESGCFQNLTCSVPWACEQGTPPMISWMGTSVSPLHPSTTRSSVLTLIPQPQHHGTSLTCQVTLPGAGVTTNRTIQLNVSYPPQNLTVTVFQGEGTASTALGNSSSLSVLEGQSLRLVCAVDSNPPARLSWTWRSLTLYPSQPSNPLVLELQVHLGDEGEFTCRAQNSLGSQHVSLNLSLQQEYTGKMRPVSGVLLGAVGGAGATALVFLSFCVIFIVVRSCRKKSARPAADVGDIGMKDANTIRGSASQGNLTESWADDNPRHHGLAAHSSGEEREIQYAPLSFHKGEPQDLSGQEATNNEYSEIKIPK
# Assay Info: cell-based or functional assay
Decide using Percent Siglec-7 Surface Expression, Macrophages: a value greater than or equal to 9% is 1, a smaller one is -1.

Query block: Hello, I need to know if anti-Siglec-7 antibody 2G4 (antibody, V domains shown, Variable domains assembled from FR and CDR entries) VH: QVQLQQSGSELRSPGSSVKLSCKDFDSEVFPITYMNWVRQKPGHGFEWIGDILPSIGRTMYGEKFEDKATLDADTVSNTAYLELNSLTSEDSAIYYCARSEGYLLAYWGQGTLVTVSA VL: DIQMTQSLSYLSVSLGGRVTITCKASDHINNWLAWYQQKPGNAPRLLISGATSLETGFPSRFSGSGSGKDYTLSITSLQTEDVATYYCHQYWNTPYTFGGGTRLEIK has measured Percent Siglec-7 Surface Expression, Macrophages not below 9%. Thanks!
Result block: 1

Query block: Hello, I need to know if anti-Siglec-7 antibody 4D7 (antibody, V domains shown, Variable domains assembled from FR and CDR entries) VH: QVQLQQSGAELVKPGASVKLSCKTSGYTFTNYWINWVKQRPGQGLEWIGNIYSGSSRTNYNEKFKSKATLTVDTSSSTAYMQLSSLTSDDSAVYYCAREGLRAMDYWGQGTSVTVSS VL: NZMTQFQKFMSTSVGDRVSLTCKASQKVGTNVAGFQQKPGHSPKAGIYSASTRHRGVQDRFTARGLGSDFILPITTZQLEDLAEYZCHQGNSVQYTFGGGTKLEIK has measured Percent Siglec-7 Surface Expression, Macrophages not below 9%. Thanks!
Result block: 1

Query block: Hello, I need to know if anti-Siglec-7 antibody 7E11 (antibody, V domains shown, Variable domains assembled from FR and CDR entries) VH: QVQLKQSGPVLVAPSQSLSITCTVSGFSLSNYGVHWVRQFPGKGLEWLGVIWAGGITNYNSVLMSRLSISKDNSKSQVFLKMNSLQTDDTAMYYCAKQGGTSFSYWGQGTLVTVSA VL: DIQMTQSPASQSASLGESVTITCLASQTIGTWLAWYQQKPGKSPQLLIYAATSLADGVPSRFSGSGSGTKFSFKISSLQAEDFVSYYCQQLYSTPYTFGGGTKLEIK has measured Percent Siglec-7 Surface Expression, Macrophages not below 9%. Thanks!
Result block: -1

Query block: Hello, I need to know if anti-Siglec-7 antibody 7A3 (antibody, V domains shown, Variable domains assembled from FR and CDR entries; VL FR1 and VH FR1 hold Z and VH FR1 looks shortened at its N-terminus) VH: LVZSGGALVKPGGSLKLSCAASGFTFSNYAMSWVRQTPEKRLEWVASISSGGSYNYYPDSVKGRFTISRDNARNTLYLQMSSLRSKDTAMYYCASQSYGSSYWYFDVWGAGTTVTVSS VL: DIQMTQZPATLSVTPGDRVSLSCRASQSISEYLHWYHQKSHESPRLLIKFASQSICGIPSRFSGSGSGSDFTLTINSVEPEDVGVYYCQNGHNFPYTFGGGTKLEIK has measured Percent Siglec-7 Surface Expression, Macrophages not below 9%. Thanks!
Result block: -1

Query block: Hello, I need to know if anti-Siglec-7 antibody 4E3 (antibody, V domains shown, VL FR1 there holds a Z); also called S7-4E3; mAb S7-4E3) VH: EVQLVESGGALVKPGGSLKISCAVSGFIFSNYDMSWVRQNPEKRLEWVATISSGGGYTYYPDSVKGRFTISRDNAKNALYLQMSSLRSEDTALYYCTRHGYGNYDWYFDVWGAGATVTVSS VL: QIVLTQSPAILSASPGEKVTMTCSANSSFTYMYWYQQKPGSSPRLLIFDTSNLASGVPIRFSGSGSGTSYSLTISRMEAEDTATYYCQQWSSSPLTFGAGTKLELK has measured Percent Siglec-7 Surface Expression, Macrophages not below 9%. Thanks!
Result block: -1

Query block: Hello, I need to know if anti-Siglec-7 antibody 2G1 (antibody, V domains shown, Variable domains assembled from FR and CDR entries; the printed VL FR1 looks shortened at its N-terminus; also called 2G11 (misprint in text)) VH: EVKLVESGGTLVKPGGSLKISCAASGFTFSNYDMSWVRQNPEKRLEWVATISSGGDYTYYPDIFKGRFTISRDDAKNALYLQMSSLRSEDTALYYCARHGYGNYDWYFDVWGAGATVTVSS VL: VLTQSPAIMSASPGEKVTMTCSANSSFIYMYWYQQKPGSSPRLLIFDTSNLASGVPIRFSGSGSGTSYSLTISRMEAEDTATYYCQQWSSSPLTFGGGTKLELK has measured Percent Siglec-7 Surface Expression, Macrophages not below 9%. Thanks!
Result block: 1

Query block: Hello, I need to know if anti-Siglec-7 antibody 7F12 (antibody, V domains shown, Variable domains assembled from FR and CDR entries) VH: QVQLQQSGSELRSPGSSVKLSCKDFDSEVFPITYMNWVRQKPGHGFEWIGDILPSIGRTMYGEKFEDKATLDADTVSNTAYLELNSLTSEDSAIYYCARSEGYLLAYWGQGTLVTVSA VL: DVLMTQTPLSLPVSLGDQASISCRSSQSLVHSTGNTYLHWYLQKPGQSPKLLIYKVSNRFSGVPDRFSGSGAGTDFTLKISRVEAEDLGVYFCSQNTHVPYTFGGGTKLEIK has measured Percent Siglec-7 Surface Expression, Macrophages not below 9%. Thanks!
Result block: 1

Query block: Hello, I need to know if anti-Siglec-7 antibody 10B5 (antibody, V domains shown, that light chain holds several Z and differs in its CDRs from S7-10B5.1 / 10B5L1; also called S7-10B5; mAb S7-10B5) VH: QVHLQQSGPELVKPGASVKISCKASGYAFTNCWMNWVRQRPGKGLDWIGRIFPGNGHTNYSGKFKDKATLTEDKSSSTAYMQLSSLTSEDSAVYFCARDYSDYYFDYWGQGTTLTVSS VL: DVQMTQTTSSLSASLGDRVTISCRASQDINTYLNWYQQKPDGTVKLLIYYTSRLHSGVPSRFSGSGSGTDYSLTISNLEQEDIATYFCQQGNTLPWTFGGGTKLEIK has measured Percent Siglec-7 Surface Expression, Macrophages not below 9%. Thanks!
Result block: -1
